Protein target, amino acids: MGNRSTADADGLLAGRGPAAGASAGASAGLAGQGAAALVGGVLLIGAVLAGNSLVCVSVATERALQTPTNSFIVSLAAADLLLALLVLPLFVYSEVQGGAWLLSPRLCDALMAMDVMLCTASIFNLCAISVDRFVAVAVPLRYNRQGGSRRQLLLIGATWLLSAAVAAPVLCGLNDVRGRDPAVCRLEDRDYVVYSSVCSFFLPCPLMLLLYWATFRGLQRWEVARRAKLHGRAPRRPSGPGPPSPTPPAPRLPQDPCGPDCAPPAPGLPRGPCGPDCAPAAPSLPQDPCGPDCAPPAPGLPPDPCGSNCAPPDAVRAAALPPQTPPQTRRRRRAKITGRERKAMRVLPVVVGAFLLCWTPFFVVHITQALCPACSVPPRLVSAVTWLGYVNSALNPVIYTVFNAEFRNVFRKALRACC
readout: Ki

Exercise: For the molecule O=C(Cc1ccccc1)NC1CCN(CCCN2C(=O)COc3ccccc32)CC1 , give its measured Ki value.
Key: ≥ 1000 nM
